assayed system: LRRK2 G2019S (Homo sapiens (Human), UniProt Q5S007, G2019S)
Sequence (Q5S007 970-2527 G2019S): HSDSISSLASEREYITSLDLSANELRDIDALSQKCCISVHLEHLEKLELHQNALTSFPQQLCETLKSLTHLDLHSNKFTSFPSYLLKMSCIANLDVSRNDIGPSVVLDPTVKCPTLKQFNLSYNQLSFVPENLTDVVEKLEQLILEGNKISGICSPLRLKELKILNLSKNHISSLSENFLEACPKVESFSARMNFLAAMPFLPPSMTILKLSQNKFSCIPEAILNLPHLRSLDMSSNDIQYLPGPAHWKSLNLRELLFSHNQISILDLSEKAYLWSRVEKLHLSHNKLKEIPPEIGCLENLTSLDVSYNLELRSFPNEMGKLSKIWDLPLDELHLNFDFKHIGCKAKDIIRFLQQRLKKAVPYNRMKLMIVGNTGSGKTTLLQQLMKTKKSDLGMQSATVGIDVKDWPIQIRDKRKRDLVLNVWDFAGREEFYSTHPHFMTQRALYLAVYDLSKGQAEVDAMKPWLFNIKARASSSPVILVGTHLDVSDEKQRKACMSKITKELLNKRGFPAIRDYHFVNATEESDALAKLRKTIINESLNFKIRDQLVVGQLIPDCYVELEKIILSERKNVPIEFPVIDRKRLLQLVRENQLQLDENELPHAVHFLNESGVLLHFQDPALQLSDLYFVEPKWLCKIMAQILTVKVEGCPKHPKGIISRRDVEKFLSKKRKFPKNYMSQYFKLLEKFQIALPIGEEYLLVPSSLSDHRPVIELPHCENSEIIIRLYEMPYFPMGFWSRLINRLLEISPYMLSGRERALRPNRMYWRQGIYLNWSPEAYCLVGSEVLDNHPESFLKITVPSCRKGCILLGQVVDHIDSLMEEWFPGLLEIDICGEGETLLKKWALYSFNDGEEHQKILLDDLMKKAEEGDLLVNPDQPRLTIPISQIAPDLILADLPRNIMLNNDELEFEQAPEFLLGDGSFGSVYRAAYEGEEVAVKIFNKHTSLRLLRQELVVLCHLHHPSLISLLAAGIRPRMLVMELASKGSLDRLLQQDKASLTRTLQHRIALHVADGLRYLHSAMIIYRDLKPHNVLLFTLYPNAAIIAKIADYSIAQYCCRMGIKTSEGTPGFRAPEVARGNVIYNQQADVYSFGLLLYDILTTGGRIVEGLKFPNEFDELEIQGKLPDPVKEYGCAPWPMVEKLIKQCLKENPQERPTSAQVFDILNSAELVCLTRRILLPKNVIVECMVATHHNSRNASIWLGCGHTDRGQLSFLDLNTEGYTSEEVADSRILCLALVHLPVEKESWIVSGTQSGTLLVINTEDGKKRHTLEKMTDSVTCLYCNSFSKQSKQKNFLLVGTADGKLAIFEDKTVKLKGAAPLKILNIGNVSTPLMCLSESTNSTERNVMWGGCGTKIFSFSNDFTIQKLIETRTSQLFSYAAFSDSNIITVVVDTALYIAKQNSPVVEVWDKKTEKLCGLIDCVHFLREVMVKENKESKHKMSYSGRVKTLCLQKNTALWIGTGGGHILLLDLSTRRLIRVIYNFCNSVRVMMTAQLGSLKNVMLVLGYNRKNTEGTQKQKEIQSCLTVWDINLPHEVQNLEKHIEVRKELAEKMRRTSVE
assay summary: LRRK2 G2019S Kinase Assay
condition label: 10 μM ATP
Description: Procedure: Enzyme was incubated with substrate peptide in reaction buffer in the presence and absence of test compounds or Staurosporine. All additions were done on ice, followed by the addition of ATP mix. Wells were uniformly mixed using an Eppendorff plate shaker and incubated at 30° C. for 20 min, and stopped by the addition of 5 μl of 3% phosphoric acid. […] 100 μl scintillation fluid was added into each well and reading taken in Perkin Elmer TOPCOUNT beta counter. […]
pIC50: −log10 of the molar value.
Measured pIC50, listed per entry.

Answered examples (3):
{"columns": ["compound", "value reported"],
 "data": [
  ["CN(C)CCNc1cncc(-c2cnc3[nH]ccc3c2)n1", "< 6.30"],
  ["COc1ccccc1-c1n[nH]c2ncc(-c3ccoc3)cc12", "> 6.30"],
  ["Cc1n[nH]c2ncc(NC3CCCN(Cc4ccc(F)c(F)c4)C3)cc12 (stereo not drawn)", "< 6.30"]
]}

Q: Name the reported pIC50 value associated with the compound Cc1n[nH]c2ncc(-c3cncnc3NC3CCN(C)CC3)cc12
Result: < 6.30

Q: Name the reported pIC50 value associated with the compound Cc1n[nH]c2ncc(-c3cccc(S(=O)(=O)N(C)C)c3)cc12
Result: < 6.00

Q: Name the reported pIC50 value associated with the compound O=C1CN(c2cncc(-c3cnc4[nH]ccc4c3)n2)CCN1
Result: < 6.30

Q: Name the reported pIC50 value associated with the compound Cc1n[nH]c2ncc(-c3cncc(Nc4cccc(N5CCCC5=O)c4)n3)cc12
Result: > 6.30

Q: Name the reported pIC50 value associated with the compound Cc1n[nH]c2ncc(-c3cnn(C)c3)cc12
Result: < 6.30

Q: Name the reported pIC50 value associated with the compound Cc1n[nH]c2ncc(-c3cncc(N4CCC(F)(F)C4)n3)cc12
Result: < 6.30
